- measured_target: Serine/threonine-protein kinase B-raf (Homo sapiens, UniProt P15056, V600E)
- Sequence (P15056 2-766 V600E limits assumed): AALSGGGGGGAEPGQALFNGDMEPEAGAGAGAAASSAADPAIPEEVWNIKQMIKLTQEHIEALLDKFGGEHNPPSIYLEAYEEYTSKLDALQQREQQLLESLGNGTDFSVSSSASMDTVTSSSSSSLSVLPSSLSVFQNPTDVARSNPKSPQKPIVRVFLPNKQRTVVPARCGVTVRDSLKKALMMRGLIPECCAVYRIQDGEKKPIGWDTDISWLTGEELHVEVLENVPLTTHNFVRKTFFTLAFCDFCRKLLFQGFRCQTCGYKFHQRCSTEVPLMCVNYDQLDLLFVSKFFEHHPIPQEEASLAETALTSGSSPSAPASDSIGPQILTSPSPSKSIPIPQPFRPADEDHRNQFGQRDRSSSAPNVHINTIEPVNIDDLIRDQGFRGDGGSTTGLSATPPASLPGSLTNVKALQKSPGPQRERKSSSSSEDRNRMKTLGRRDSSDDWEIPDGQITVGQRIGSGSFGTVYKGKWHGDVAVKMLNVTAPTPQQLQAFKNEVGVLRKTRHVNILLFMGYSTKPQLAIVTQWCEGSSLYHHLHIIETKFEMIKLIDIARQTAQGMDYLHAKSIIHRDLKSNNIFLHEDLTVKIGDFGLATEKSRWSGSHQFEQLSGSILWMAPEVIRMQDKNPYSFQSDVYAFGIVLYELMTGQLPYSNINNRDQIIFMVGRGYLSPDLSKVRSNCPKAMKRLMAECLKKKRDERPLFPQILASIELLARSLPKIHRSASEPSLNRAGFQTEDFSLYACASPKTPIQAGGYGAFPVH
- procedure_details: Inhibition of B-Raf V600E mutant in human Malme-3M cells assessed as basal ERK phosphorylation
- Assay type: cell-based
recorded_metric: IC50 (nM)

Below, 6 compounds whose answers are already recorded.
{"smiles_str": "CCCS(=O)(=O)Nc1ccc(F)c(C(=O)Nc2cnc3[nH]c(-c4ccc(Br)cc4)nc3c2)c1F", "IC50 [nM]": 61}
{"smiles_str": "CCCS(=O)(=O)Nc1ccc(F)c(C(=O)Nc2cnc3[nH]c(-c4ccc(OC(F)(F)F)cc4)nc3c2)c1F", "IC50 [nM]": 86}
{"smiles_str": "CCCS(=O)(=O)Nc1ccc(F)c(C(=O)Nc2cnc3[nH]c(-c4cccc(F)c4)nc3c2)c1F", "IC50 [nM]": 298}
{"smiles_str": "CCCS(=O)(=O)Nc1ccc(F)c(C(=O)Nc2cnc3[nH]c(-c4cccc(Br)c4)nc3c2)c1F", "IC50 [nM]": 172}
{"smiles_str": "CCCS(=O)(=O)Nc1ccc(F)c(C(=O)Nc2cnc3[nH]c(-c4ccc(F)c(F)c4)nc3c2)c1F", "IC50 [nM]": 194}
{"smiles_str": "CCCS(=O)(=O)Nc1ccc(F)c(C(=O)Nc2cnc3[nH]c(C4CCC4)nc3c2)c1F", "IC50 [nM]": 3330}

P. CCCS(=O)(=O)Nc1ccc(F)c(C(=O)Nc2cnc3[nH]c(-c4cccnc4)nc3c2)c1F
Q. CCCS(=O)(=O)Nc1ccc(F)c(C(=O)Nc2cnc3[nH]c(-c4ccccc4Cl)nc3c2)c1F
Q) Which gives the smaller IC50 number: P or Q ? Write the label of whichever entry you select.
A) Q
(Q: 557 nM, P: 1130 nM)
